# Tested on: SF-268
# test: Cytotoxicity against human SF268 cells after 72 hrs BY SRB assay
# Assay type: functional, cell-based
# assay_conditions: SF-268, 72 h
pIC50: −log10 of the molar value.
Here the recorded pIC50 is given for each entry.

| compound | pIC50 |
| --- | --- |
| CCCCC[C@H](O)c1c(O)cc2c(c1O)C(=O)c1c(cc(OC)c(Cl)c1O)C2=O | 5.15 |
| CCCC/C=C/c1c(O)cc2c(c1O)C(=O)c1c(cc(OC)c(Cl)c1O)C2=O | < 4.30 |
| CCCCC[C@H](O)c1c(O)cc2c(c1O)C(=O)c1c(cc(OC)c(Br)c1O)C2=O | 4.61 |
| CCCCC[C@H](OC)c1c(O)cc2c(c1O)C(=O)c1c(cc(OC)c(Cl)c1O)C2=O | < 4.30 |
| CCCCC[C@H](OC)c1c(O)cc2c(c1O)C(=O)c1c(cc(O)c(Cl)c1O)C2=O | 4.47 |
| CCCCC[C@H](OC)c1c(O)cc2c(c1O)C(=O)c1c(cc(OC)c(Br)c1O)C2=O | < 4.30 |
| CCCC/C=C/c1c(O)cc2c(c1O)C(=O)c1c(O)cc(O)cc1C2=O [AVERYTHRIN] | < 4.30 |
| CCCCC[C@H](O)c1c(O)cc2c(c1O)C(=O)c1c(O)cc(O)cc1C2=O | < 4.30 |
| CCCC/C=C/c1c(O)cc2c(c1O)C(=O)c1c(cc(O)c(Cl)c1O)C2=O | < 4.30 |
| CCCCC[C@H](OC)c1c(O)cc2c(c1O)C(=O)c1c(O)cc(O)cc1C2=O | 4.47 |
| CCCCC[C@H](O)c1c(O)cc2c(c1O)C(=O)c1c(O)cc(OC)cc1C2=O | < 4.30 |
| CCCCC[C@H](OCCCC)c1c(O)cc2c(c1O)C(=O)c1c(O)cc(O)cc1C2=O | 4.33 |
| CCCCC[C@H](OCCCC)c1c(O)cc2c(c1O)C(=O)c1c(cc(O)c(Cl)c1O)C2=O | < 4.30 |
| CCCCC[C@H](O)c1c(O)cc2c(c1O)C(=O)c1c(cc(O)c(Cl)c1O)C2=O | < 4.30 |
| CCCCC[C@H](OC)c1c(O)cc2c(c1O)C(=O)c1c(O)cc(OC)cc1C2=O | < 4.30 |

Measured values drawn from ChEMBL document CHEMBL2069264 for this set.
